Catalogue of molecules with associated MIC
Tested on: VISA clinical isolates of MRSA (VI-MRSA) and of MSSA (VI-MSSA)
ASSAY OVERVIEW: microbe, parasite or virus in culture
Type: cell-based, Staphylococcus aureus
EXPERIMENTAL PARAMETERS: Staphylococcus aureus, SA MER-S20, VI-MSSA, France
Counter-ions that a name gives are not always drawn.

Some molecules with recorded MIC:
C[C@H]1COc2c(N3CCN(C)CC3)c(F)cc3c(=O)c(C(=O)O)cn1c23 | 0.125 µg/mL
CC1COc2c(N3CCN(C)CC3)c(F)cc3c(=O)c(C(=O)O)cn1c23 (stereo not drawn) | 0.25 µg/mL

Now for a further molecule.
The value of MIC measured for the molecule NC1CCN(c2nc3c(cc2F)c(=O)c(C(=O)O)cn3-c2ccc(F)cc2F)C1 (stereo not drawn) [TFLX, tosufloxacin tosylate] turned out to be 1 µg/mL

---

Quick reference for MIC among some compounds
Test system: VISA clinical isolates of MRSA (VI-MRSA) and of MSSA (VI-MSSA)
ASSAY OVERVIEW: microbe, parasite or virus in culture
Assay type: cell-based, Staphylococcus aureus
EXPERIMENTAL PARAMETERS: Staphylococcus aureus, HIP07930, VI-MRSA, America
Could you give me the number in µg/mL? Just the number is fine.

# example entries with known answers
Cc1cc(=O)n(C)c2c3c4c(cc12)c(C)cc(=O)n4CO3 | 0.5
CC1COc2c(N3CCN(C)CC3)c(F)cc3c(=O)c(C(=O)O)cn1c23 (stereo not drawn) | 32
Cc1onc(-c2ccccc2)c1C(=O)N[C@@H]1C(=O)N2[C@@H]1SC(C)(C)[C@@H]2C(=O)O | 32
C[C@H]1COc2c(N3CCN(C)CC3)c(F)cc3c(=O)c(C(=O)O)cn1c23 | 32
CN[C@H](CC(C)C)C(=O)N[C@H]1C(=O)N[C@@H](CC(N)=O)C(=O)N[C@H]2C(=O)N[C@H]3C(=O)N[C@H](C(=O)N[C@H](C(=O)O)c4cc(O)cc(O)c4-c4cc3ccc4O)[C@H](O)c3ccc(c(Cl)c3)Oc3cc2cc(c3O[C@@H]2O[C@H](CO)[C@@H](O)[C@H](O)[C@H]2O[C@H]2C[C@](C)(N)[C@H](O)[C@H](C)O2)Oc2ccc(cc2Cl)[C@H]1O | 4

Entry C[C@@H]1CN(c2c(F)c(N)c3c(=O)c(C(=O)O)cn(C4CC4)c3c2F)C[C@H](C)N1 , MIC reported as 16

// field: MIC; key: CCn1cc(C(=O)O)c(=O)c2cc(F)c(N3CCNCC3)cc21 ; value = 128

Notebook: Cc1cc(=O)n2c3c(c4c(cc13)c(CO)cc(=O)n4C)OC2 , MIC read as 1

---

A collection of molecules and their measured MIC
System: MRSA, CA-MRSA and MSSA of Staphylococcus aureus
ASSAY OVERVIEW: MIC measurement, Test Example 4 (MRSA, CA-MRSA and MSSA strains)
Type: cell-based
EXPERIMENTAL PARAMETERS: Staphylococcus aureus, MRSA / MSSA / USA300, USA300 FPR3757, CA-MRSA

# example entries with known answers
CC1COc2c(N3CCN(C)CC3)c(F)cc3c(=O)c(C(=O)O)cn1c23 (centres unmarked) | 16 µg/mL
Cc1cc(=O)n2c3c(c4c(cc13)c(CO)cc(=O)n4C)OC2 | 0.25 µg/mL
C[C@@H]1CN(c2c(F)c(N)c3c(=O)c(C(=O)O)cn(C4CC4)c3c2F)C[C@H](C)N1 | 8 µg/mL
Cc1onc(-c2ccccc2)c1C(=O)N[C@@H]1C(=O)N2[C@@H]1SC(C)(C)[C@@H]2C(=O)O | 16 µg/mL
Cc1cc(=O)n(C)c2c3c4c(cc12)c(C)cc(=O)n4CO3 | 0.125 µg/mL

The molecule listed as C[C@@H](O)[C@H]1C(=O)N2C(C(=O)O)=C(SCCN=CN)C[C@H]12 has a reported MIC of 2 µg/mL

For this molecule ( CCn1cc(C(=O)O)c(=O)c2cc(F)c(N3CCNCC3)cc21 ), measured MIC is 32 µg/mL

// MIC value for C[C@H]1COc2c(N3CCN(C)CC3)c(F)cc3c(=O)c(C(=O)O)cn1c23 : 32 µg/mL

---

Test system: VISA clinical isolates of MRSA (VI-MRSA) and of MSSA (VI-MSSA)
ASSAY OVERVIEW: microbe, parasite or virus in culture
Format: cell-based, Staphylococcus aureus
EXPERIMENTAL PARAMETERS: Staphylococcus aureus, HIP10267, VI-MRSA, America
Catalogue of log10(MIC) values
Use the decimal logarithm of MIC (µg/mL).

Observe how each entry below is paired with its result.
Cc1onc(-c2ccccc2)c1C(=O)N[C@@H]1C(=O)N2[C@@H]1SC(C)(C)[C@@H]2C(=O)O [OXA, oxacillin] | 0.60
C[C@H]1COc2c(N3CCN(C)CC3)c(F)cc3c(=O)c(C(=O)O)cn1c23 [LVFX, levofloxacin] | 1.51
Cc1cc(=O)n(C)c2c3c4c(cc12)c(C)cc(=O)n4CO3 [DNM, deoxynybomycin] | -0.60
CN[C@H](CC(C)C)C(=O)N[C@H]1C(=O)N[C@@H](CC(N)=O)C(=O)N[C@H]2C(=O)N[C@H]3C(=O)N[C@H](C(=O)N[C@H](C(=O)O)c4cc(O)cc(O)c4-c4cc3ccc4O)[C@H](O)c3ccc(c(Cl)c3)Oc3cc2cc(c3O[C@@H]2O[C@H](CO)[C@@H](O)[C@H](O)[C@H]2O[C@H]2C[C@](C)(N)[C@H](O)[C@H](C)O2)Oc2ccc(cc2Cl)[C@H]1O [VCM, vancomycin] | 0.60
Cc1cc(=O)n2c3c(c4c(cc13)c(CO)cc(=O)n4C)OC2 [NM, nybomycin] | 0.30
CC1COc2c(N3CCN(C)CC3)c(F)cc3c(=O)c(C(=O)O)cn1c23 (stereo not drawn) [OFLX, ofloxacin] | 1.81

According to the records, this molecule C[C@@H]1CN(c2c(F)c(N)c3c(=O)c(C(=O)O)cn(C4CC4)c3c2F)C[C@H](C)N1 [SPFX, sparfloxacin] displays log10(MIC) of 1.20

---

Test system: VISA clinical isolates of MRSA (VI-MRSA) and of MSSA (VI-MSSA)
ASSAY OVERVIEW: microbe, parasite or virus in culture
Type: cell-based, Staphylococcus aureus
EXPERIMENTAL PARAMETERS: Staphylococcus aureus, HIP10540, VI-MRSA, America
Structures can show the parent of a compound that is named as a salt.
Measured MIC by item
Number in µg/mL, nothing else.

# example entries with known answers
Cc1onc(-c2ccccc2)c1C(=O)N[C@@H]1C(=O)N2[C@@H]1SC(C)(C)[C@@H]2C(=O)O [OXA, oxacillin] | 64
CC1COc2c(N3CCN(C)CC3)c(F)cc3c(=O)c(C(=O)O)cn1c23 (stereo not drawn) [OFLX, ofloxacin] | 32
CN[C@H](CC(C)C)C(=O)N[C@H]1C(=O)N[C@@H](CC(N)=O)C(=O)N[C@H]2C(=O)N[C@H]3C(=O)N[C@H](C(=O)N[C@H](C(=O)O)c4cc(O)cc(O)c4-c4cc3ccc4O)[C@H](O)c3ccc(c(Cl)c3)Oc3cc2cc(c3O[C@@H]2O[C@H](CO)[C@@H](O)[C@H](O)[C@H]2O[C@H]2C[C@](C)(N)[C@H](O)[C@H](C)O2)Oc2ccc(cc2Cl)[C@H]1O [VCM, vancomycin] | 4

MIC reading for Cc1cc(=O)n2c3c(c4c(cc13)c(CO)cc(=O)n4C)OC2 [NM, nybomycin] : 0.25

Record C[C@@H]1CN(c2c(F)c(N)c3c(=O)c(C(=O)O)cn(C4CC4)c3c2F)C[C@H](C)N1 [SPFX, sparfloxacin] . Reported MIC: 16

Notebook: C[C@H]1COc2c(N3CCN(C)CC3)c(F)cc3c(=O)c(C(=O)O)cn1c23 [LVFX, levofloxacin] , MIC read as 8

Form field MIC, entry NC1CCN(c2nc3c(cc2F)c(=O)c(C(=O)O)cn3-c2ccc(F)cc2F)C1 (stereo not drawn) [TFLX, tosufloxacin tosylate] : 128

---

Tested on: Enterococcus faecalis
ASSAY OVERVIEW: MIC measurement, Test Example 6 (enterococcus)
Format: cell-based
EXPERIMENTAL PARAMETERS: Enterococcus faecalis, NCTC 12201 / VRE, E. faecalis NCTC12201, vancomycin-resistant (VRE), quinolone-susceptible enterococci; read-out: MIC
Entries and their MIC
Could you give me the number in µg/mL? Just the number is fine.

Example cases with answers are listed next.
Cc1cc(=O)n2c3c(c4c(cc13)c(CO)cc(=O)n4C)OC2 | 8
C[C@H]1COc2c(N3CCN(C)CC3)c(F)cc3c(=O)c(C(=O)O)cn1c23 | 1

Proceed to the following item.
Briefly, MIC measured for C[C@@H]1CN(c2c(F)c(N)c3c(=O)c(C(=O)O)cn(C4CC4)c3c2F)C[C@H](C)N1 : 0.5

These measurements were taken from patent US20120258980A1.
